Test system: mouse (MC3T3-E1) and human (TE-85) osteoblast-line cells
Format: cell-based
measurement-setup: 10^-10
As shown below, each of these compounds has a reported Osteoblast Cell Proliferation, 3H-thymidine incorporation vs control (100%) value.
Numeric only. Scale: %

Field: example entries. Status: answers known.
# compound, value-observed
records = [
    ("Cc1ccc(S(=O)(=O)N2CCCC(c3ccc4c(c3)CCCC4)=N2)cc1", 127),
    ("S=C(c1ccc(Cl)c(Cl)c1)N1CCCC(c2ccccc2)=N1", 119),
    ("O=C(c1cc(Cl)cc(Cl)c1)N1CCCC(c2ccccc2)=N1", 121),
]

Looking for the measured Osteoblast Cell Proliferation, 3H-thymidine incorporation vs control (100%) of `S=C(c1ccc(Cl)c(Cl)c1)N1CCCC(c2ccc(Cl)c(Cl)c2)=N1` , can you help?
89

Please report the recorded Osteoblast Cell Proliferation, 3H-thymidine incorporation vs control (100%) for `Fc1ccc(C(=S)N2CCCC(c3ccc(Cl)c(Cl)c3)=N2)cc1F` .
115

Need Osteoblast Cell Proliferation, 3H-thymidine incorporation vs control (100%), item `O=S(=O)(c1ccc(Br)cc1)N1CCCC(c2ccc(Cl)cc2)=N1`
152

Quick one: Osteoblast Cell Proliferation, 3H-thymidine incorporation vs control (100%) for `O=S(=O)(c1ccc2ccccc2c1)N1CCCC(c2ccccc2)=N1` ?
158

---

Tested on: mouse (MC3T3-E1) and human (TE-85) osteoblast-line cells
Format: cell-based
measurement-setup: 10^-10
parameter: Osteoblast Cell Proliferation, 3H-thymidine incorporation vs control (100%)
Respond with the bare value in %.

Hello, I am looking for reported Osteoblast Cell Proliferation, 3H-thymidine incorporation vs control (100%) with mouse (MC3T3-E1) and human (TE-85) osteoblast-line cells for `O=S(=O)(/C=C/c1ccccc1)N1CCCC(c2ccc(Cl)c(Cl)c2)=N1` . Could you help?
165

Notebook: pull reported Osteoblast Cell Proliferation, 3H-thymidine incorporation vs control (100%) for mouse (MC3T3-E1) and human (TE-85) osteoblast-line cells, entry `COc1ccc(C2=NN(S(=O)(=O)c3ccccc3)CCC2)cc1`
137

Param readout= Osteoblast Cell Proliferation, 3H-thymidine incorporation vs control (100%); system= mouse (MC3T3-E1) and human (TE-85) osteoblast-line cells; entry= `Cc1ccc(S(=O)(=O)N2CCCC(c3ccc(Cl)c(Cl)c3)=N2)cc1` ; returns value.
116

I'm curious: which Osteoblast Cell Proliferation, 3H-thymidine incorporation vs control (100%) was measured for `CC(C)(C)c1ccc(C(=O)N2CCCC(c3ccc(Cl)cc3)=N2)cc1` tested on mouse (MC3T3-E1) and human (TE-85) osteoblast-line cells?
136

Osteoblast Cell Proliferation, 3H-thymidine incorporation vs control (100%) of `O=[N+]([O-])c1cccc(S(=O)(=O)N2CCCC(c3ccc(Cl)cc3)=N2)c1` on mouse (MC3T3-E1) and human (TE-85) osteoblast-line cells?
139

Which measured Osteoblast Cell Proliferation, 3H-thymidine incorporation vs control (100%) belongs to `O=C(c1cccc(C(F)(F)F)c1)N1CCCC(c2ccc(Cl)c(Cl)c2)=N1` , tested on mouse (MC3T3-E1) and human (TE-85) osteoblast-line cells?
109

// lookup Osteoblast Cell Proliferation, 3H-thymidine incorporation vs control (100%) | system=mouse (MC3T3-E1) and human (TE-85) osteoblast-line cells | key= `Nc1ccc(S(=O)(=O)N2CCCC(c3ccc(Cl)cc3)=N2)cc1`
103

What reported Osteoblast Cell Proliferation, 3H-thymidine incorporation vs control (100%) corresponds to `CC(=O)Nc1ccc(S(=O)(=O)N2CCCC(c3ccc(Cl)cc3)=N2)cc1` on mouse (MC3T3-E1) and human (TE-85) osteoblast-line cells?
115

Look up Osteoblast Cell Proliferation, 3H-thymidine incorporation vs control (100%) with mouse (MC3T3-E1) and human (TE-85) osteoblast-line cells for this compound: `O=S(=O)(c1ccc2ccccc2c1)N1CCCC(c2ccc(Cl)c(Cl)c2)=N1`
166

Provide the documented Osteoblast Cell Proliferation, 3H-thymidine incorporation vs control (100%) with mouse (MC3T3-E1) and human (TE-85) osteoblast-line cells as the system for COP(=O)(c1ccccc1)N1CCCC(c2ccc(F)cc2)=N1 (stereo not drawn)
98

API: value(readout=Osteoblast Cell Proliferation, 3H-thymidine incorporation vs control (100%), system=mouse (MC3T3-E1) and human (TE-85) osteoblast-line cells) for record `O=C(c1ccc(Cl)c(Cl)c1)N1CCCC(c2ccc(F)cc2)=N1`
138

Give the reported Osteoblast Cell Proliferation, 3H-thymidine incorporation vs control (100%) for `O=S(=O)(/C=C/c1ccc(Cl)cc1)N1CCCC(c2ccc(Cl)c(Cl)c2)=N1` (system: mouse (MC3T3-E1) and human (TE-85) osteoblast-line cells).
108

Notebook: pull reported Osteoblast Cell Proliferation, 3H-thymidine incorporation vs control (100%) for mouse (MC3T3-E1) and human (TE-85) osteoblast-line cells, entry `O=C(c1ccc([N+](=O)[O-])cc1)N1CCCC(c2ccc(Cl)cc2)=N1`
128

---

target-under-test: progestin receptor from rabbit uterus (Oryctolagus cuniculus)
Construct: Cytosolic progestin receptor were obtained by mixing rabbit uterine tissue with a Tris buffer; from tissue; host or cells: rabbit uterus cytosol
assay-explanation: Progestin receptor binding (3H-R5020 displacement)
measurement-setup: rabbit uterine cytosol, 4° C., 18 h, read-out: IC50: Binding affinity for the progestin receptor from rabbit uterus
pIC50: −log10 of the molar value.
So basically, the class depends on measured pIC50, and the ranges are lower bin: < 6; middle bin: ≥ 6 and < 8; upper bin: ≥ 8

Entry O=S(=O)(c1ccc(I)cc1)N1CCCC(c2ccc(Cl)cc2)=N1 [Compound 16] belongs to which category?
upper bin

Each compound maps to one class by pIC50. Which class for O=C(c1ccc([N+](=O)[O-])cc1)N1CCCC(c2ccc(Cl)c(Cl)c2)=N1 [Compound 217] ?
middle bin

Form: Item = O=S(=O)(c1cc(Cl)ccc1Cl)N1CCCC(c2ccc(Cl)cc2)=N1 [Compound 5] ; Class = ?
upper bin

Hi, small favor: classify O=S(=O)(c1ccc(Br)cc1)N1CCCC(c2ccccc2)=N1 [Compound 49] by its pIC50 when you get a moment.
middle bin

Could you place O=S(=O)(c1cc(Cl)ccc1Cl)N1CCCC(c2ccc3ccccc3c2)=N1 [Compound 118] in its proper category? Many thanks.
upper bin

Categorize the following entry: O=S(=O)(c1cc(Cl)ccc1Cl)N1CCCC(c2ccc3c(c2)CCCC3)=N1 [Compound 89]
middle bin

# classify by pIC50 band: CCCCc1ccc(C2=NN(S(=O)(=O)c3ccc(Cl)cc3)CCC2)cc1 [Compound 73]
lower bin

---

What follows is a collection of IC50 values obtained with progestin receptor from rabbit uterus (Oryctolagus cuniculus).
# number only, unit nM dropped from output

Solved cases (3 shown):
# smiles-data, value-unit, IC50
rows = [
    ("O=S(=O)(/C=C/c1ccccc1)N1CCCC(c2ccc3ccccc3c2)=N1", "nM", 22.8),
    ("COC(=O)CCCOc1ccc(Br)cc1S(=O)(=O)N1CCCC(c2ccc(Cl)c(Cl)c2)=N1", "nM", 70),
    ("O=S(=O)(c1ccc(Cl)cc1)N1CCCC(c2ccc3ccccc3c2)=N1", "nM", 4.97),
]

Pending compound:
IC50 lookup needed for `CCCCc1ccc(C2=NN(S(=O)(=O)c3cccc([N+](=O)[O-])c3)CCC2)cc1` , thanks.
10000

---

target-under-test: progestin receptor from rabbit uterus (Oryctolagus cuniculus, UniProt P06186)
Construct: Cytosolic progestin receptor were obtained by mixing rabbit uterine tissue with a Tris buffer; from tissue; host or cells: rabbit uterus cytosol
Sequence (P06186 whole entry): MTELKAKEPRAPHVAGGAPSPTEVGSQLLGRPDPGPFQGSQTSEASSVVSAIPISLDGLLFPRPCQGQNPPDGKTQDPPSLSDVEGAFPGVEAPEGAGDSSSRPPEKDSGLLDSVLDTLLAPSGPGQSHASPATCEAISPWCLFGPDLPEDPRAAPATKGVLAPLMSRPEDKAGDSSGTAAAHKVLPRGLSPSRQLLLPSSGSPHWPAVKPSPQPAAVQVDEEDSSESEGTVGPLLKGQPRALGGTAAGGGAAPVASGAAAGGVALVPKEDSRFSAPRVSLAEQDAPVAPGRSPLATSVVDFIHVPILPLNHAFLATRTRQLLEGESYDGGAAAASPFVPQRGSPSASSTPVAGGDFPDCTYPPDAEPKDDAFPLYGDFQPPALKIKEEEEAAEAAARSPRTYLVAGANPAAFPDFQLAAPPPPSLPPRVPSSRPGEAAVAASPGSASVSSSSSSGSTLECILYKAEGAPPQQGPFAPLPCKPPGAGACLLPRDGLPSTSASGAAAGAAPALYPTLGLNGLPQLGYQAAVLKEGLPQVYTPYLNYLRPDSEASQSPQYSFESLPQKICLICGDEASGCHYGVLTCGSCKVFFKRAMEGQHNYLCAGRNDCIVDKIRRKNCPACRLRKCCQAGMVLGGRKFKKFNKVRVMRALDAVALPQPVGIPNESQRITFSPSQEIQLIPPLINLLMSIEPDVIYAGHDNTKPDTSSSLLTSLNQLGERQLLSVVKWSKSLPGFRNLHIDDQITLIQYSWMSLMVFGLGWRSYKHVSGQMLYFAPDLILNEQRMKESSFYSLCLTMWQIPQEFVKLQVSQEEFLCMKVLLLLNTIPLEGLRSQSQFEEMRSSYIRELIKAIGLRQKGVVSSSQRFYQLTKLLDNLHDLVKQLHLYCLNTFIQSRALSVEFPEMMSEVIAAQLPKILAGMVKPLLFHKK
assay-explanation: Progestin receptor binding (3H-R5020 displacement)
measurement-setup: rabbit uterine cytosol, 4° C., 18 h, read-out: IC50: Binding affinity for the progestin receptor from rabbit uterus
compounds and their reported IC50
Write your answer as a measured quantity: the number, then the unit.

# compound, target-under-test, parameter, value-observed
records = [
    ("O=S(=O)(/C=C/c1ccccc1)N1CCCC(c2ccc(Cl)c(C(F)(F)F)c2)=N1", "progestin receptor from rabbit uterus (Oryctolagus cuniculus, UniProt P06186)", "IC50", "53.9 nM"),
]

We now examine a further compound.
For the compound `O=[N+]([O-])c1ccc(C(=S)N2CCCC(c3ccc(Cl)c(Cl)c3)=N2)cc1` , what IC50 is on record?
12 nM

---

Reported log10 IC50 for target or system progestin receptor from rabbit uterus (Oryctolagus cuniculus), by entry.
Note the log scale: values are log10 of IC50 expressed in nM.

# smiles-data, parameter, value-observed
data = [
    ("Cc1ccc(/C=C/S(=O)(=O)N2CCCC(c3ccc4ccccc4c3)=N2)cc1", "log10 IC50", 0.79),
    ("O=S(=O)(c1cccc(Cl)c1Cl)N1CCCC(c2ccc(Cl)c(Cl)c2)=N1", "log10 IC50", 0.27),
    ("O=S(=O)(c1cc(Cl)ccc1Cl)N1CCCC(c2ccc3c(c2)OCCO3)=N1", "log10 IC50", 2.75),
    ("COc1ccc(C2=NN(S(=O)(=O)c3ccc(C)cc3)CCC2)cc1", "log10 IC50", 4.00),
    ("Cc1ccc(S(=O)(=O)N2CCCC(c3ccc4ccccc4c3)=N2)cc1", "log10 IC50", 1.12),
]

So what log10 IC50 did `O=S(=O)(c1ccc(I)cc1)N1CCCC(c2ccc3ccccc3c2)=N1` get with progestin receptor from rabbit uterus (Oryctolagus cuniculus)?
0.40

Request body: readout log10 IC50, system progestin receptor from rabbit uterus (Oryctolagus cuniculus), query `O=S(=O)(c1ccc2c(c1)CCCC2)N1CCCC(c2ccc(Cl)c(C(F)(F)F)c2)=N1` . Return the value.
0.39

# returns recorded log10 IC50 (system: progestin receptor from rabbit uterus (Oryctolagus cuniculus)) for `O=S(=O)(c1cccc(C(F)(F)F)c1)N1CCCC(c2ccc(Cl)cc2)=N1`
0.48

// data source = patent US5684151A
